# ASSAY_SUMMARY: gradient 5% acetonitrile 3 min, to 50% in 2 min, to 85% in 15 min, held 3 min, 100 µL/min
# CONDITION_LABEL: column: Zorbax Extend-C18 2.1 x 50 mm; eluents: water / acetonitrile, 0.1% formic acid
METRIC_NAME: RP-LC retention time (s)

CC(C)c1nccn1C1CN(S(=O)(=O)c2cccc(F)c2)C1	640
O=C(Cc1nnc2c(-c3nc(C4CC4)no3)cccn12)NC1CCCCC1	685
O=c1ccnc(Nc2ccc(Cl)cc2)[nH]1	701
Cc1nnc(-c2cc(C)n(CC(=O)Nc3cccc(Cl)c3)c2C)o1	805
COCCc1noc(-c2cnc3nc(C)ccc3c2NCc2cccc(Cl)c2)n1	711

----------
# ASSAY_SUMMARY: gradient 5% acetonitrile 3 min, to 50% in 2 min, to 85% in 15 min, held 3 min, 100 µL/min
# CONDITION_LABEL: column: Zorbax Extend-C18 2.1 x 50 mm; eluents: water / acetonitrile, 0.1% formic acid
METRIC_NAME: RP-LC retention time (s)

Answered examples (8):
O=C(CSc1nc2ccccc2o1)NCCn1nc(-c2cccs2)ccc1=O	718
Brc1ccccc1Cc1nc(-c2ccc3nncn3c2)no1	724
O=C(NCCc1c[nH]c2ccc(Cl)cc12)c1cc2n(n1)CCCN(Cc1ccccc1)C2=O	904
CC(C)Cc1ccc(S(=O)(=O)N2CCN(c3ccccn3)CC2)cc1	840
CC1CCCCN1CCCNC(=O)C1=Cc2cc(Br)ccc2OC1 (stereo not given)	696
Cc1ccc(N2CCN(C(=O)CN3CCN(Cc4cccc(Cl)c4)C3=O)CC2)cc1	905
Cc1cccc(NC(=O)C2CCN(S(=O)(=O)c3cc(C(=O)N4CCCCCC4)cs3)CC2)n1	769
O=C(Nc1cc(-c2ccccc2)nn1CCO)c1ccsc1	726

(I) Cc1nc(C)c(C(=O)N2CC(Oc3ccc(-c4nc(-c5ccccc5)no4)cc3)C2)s1
(II) O=C(c1cn2ccnc(-c3ccc(F)cc3)c2n1)N1CCN(C(=O)c2ccco2)CC1
Just curious, which one has the larger RP-LC retention time reading, I or II ? Use the label to indicate which entry you chose.
I
(I: 1130 s, II: 693 s)

----------
# ASSAY_SUMMARY: gradient 5% acetonitrile 3 min, to 50% in 2 min, to 85% in 15 min, held 3 min, 100 µL/min
# CONDITION_LABEL: column: Zorbax Extend-C18 2.1 x 50 mm; eluents: water / acetonitrile, 0.1% formic acid
METRIC_NAME: RP-LC retention time (s)

Answered examples (5):
CCn1cnc2cc(-c3noc(CNC(=O)Cc4ccc(Cl)cc4)n3)ccc21	658
COc1ccc(NC(=O)NCCCn2c(C(F)(F)F)nc3cccnc32)cc1OC	708
CCCNC(=O)C1CCCN(c2ccc(SCC(=O)Nc3cc(F)ccc3F)nn2)C1 (centres undefined)	698
CCOc1cccc(-c2noc(Cn3c(=O)n(CC)c(=O)c4ccccc43)n2)c1	983
O=C(COc1ccc(F)cc1)Nc1cnc(N2CCCCCC2)nc1	957

(1) CCOCCCNC(=O)NC1CCN(c2nc3ccccc3n(C)c2=O)CC1
(2) COc1cc2ncc(-c3ccccc3)nc2cc1OC
I would appreciate it if you could say which entry, 1 or 2 , has the lower RP-LC retention time value. Use the label to indicate which entry you chose.
1
